- ASSAY_PROTOCOL: ATG_SREBP_CIS: Attagene CIS-FACTORIAL HepG2 Assay for human Sterol Regulatory Element Binding (SREBP) (AID 2282962)
- TEST_SETTINGS: HepG2 Attagene cis-factorial SREBP reporter, mRNA; actives raise or lower the signal
Calls of active or inactive are those of the source. The calls were made as follows: active = hit-call score of the fitted dose curve at least 0.9, where 1 is the maximum; inactive = score below 0.9.
Output constraint: value belongs to active, inactive

Query: recorded result category for "O=C(O)C(F)(F)C(F)(F)C(F)(F)C(=O)O" in this test
inactive

// return assay outcome for "O=C(O)CCC(F)(F)C(F)(F)C(F)(F)F"
inactive

Recorded test outcome, item "OCCCCl"
inactive

Kindly provide the recorded test outcome for the following compound: "CC(C)CC=C(C=O)c1ccccc1"
inactive

What outcome does the record of this test show for "CCCCCCCCCCCC(=O)Cl" ?
active

Please state the recorded outcome for this compound: "CN(C)C(C)(C)CO"
inactive

Any idea what this test logged for "CCCCCC/C=C/CCCCCCCC(=O)O" ?
inactive

Tell me the recorded outcome of this test for "O=C1c2ccccc2C(=O)c2c(Cl)cccc21" .
inactive
